- Measurement target: WH8102_ProX (Parasynechococcus marenigrum, UniProt Q7U4Z5)
- Sequence (Q7U4Z5 entry or part of it): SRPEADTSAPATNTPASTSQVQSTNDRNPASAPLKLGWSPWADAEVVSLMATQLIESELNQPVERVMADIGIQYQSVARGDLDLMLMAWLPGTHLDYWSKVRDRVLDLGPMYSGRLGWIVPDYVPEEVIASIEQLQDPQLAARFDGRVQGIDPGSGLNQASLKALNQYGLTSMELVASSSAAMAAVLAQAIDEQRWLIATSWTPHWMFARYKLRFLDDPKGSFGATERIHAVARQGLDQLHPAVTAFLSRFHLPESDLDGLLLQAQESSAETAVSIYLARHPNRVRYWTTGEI
- Assay explanation: Modified DSF (isothermal analysis, FoldAffinity) binding affinity of WH8102_ProX
- Parameters: species or system Synechococcus sp. WH8102
- Experimental conditions: 1.5 M NaCl; read-out: Affinity (K D)
Readout name: Kd (µM)

item_smiles=C[N+](C)(C)CC(=O)[O-] measurement_target="WH8102_ProX (Parasynechococcus marenigrum, UniProt Q7U4Z5)" readout_name=Kd unit_abbrev=µM observed=13

---

- Measurement target: (UniProt A0A7G8ITR3)
- Sequence (A0A7G8ITR3 40-334 limits assumed): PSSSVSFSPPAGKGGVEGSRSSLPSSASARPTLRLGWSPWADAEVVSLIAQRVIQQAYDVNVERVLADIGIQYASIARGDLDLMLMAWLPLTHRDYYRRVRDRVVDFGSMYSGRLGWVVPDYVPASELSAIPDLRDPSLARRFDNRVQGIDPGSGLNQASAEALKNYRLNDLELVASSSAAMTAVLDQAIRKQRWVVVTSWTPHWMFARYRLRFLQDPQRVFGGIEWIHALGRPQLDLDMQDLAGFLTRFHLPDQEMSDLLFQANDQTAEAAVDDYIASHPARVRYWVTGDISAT
- Assay explanation: Modified DSF (isothermal analysis, FoldAffinity) binding affinity of MITS9220_ProX
- Parameters: species or system Synechococcus sp. MITS9220
- Experimental conditions: 0.25 M NaCl; read-out: Affinity (K D)
pKd: −log10 of the molar value.
Readout name: pKd

molecule="C[N+](C)(C)CC(=O)[O-] [glycine betaine]" measurement_target="(UniProt A0A7G8ITR3)" readout_name=pKd observed=5.96
